PROTOCOL DESCRIPTION: in vitro
TEST SETTINGS: human, ahh-1 cells, RELATIVE SURVIVAL, 25 μM × 48 hours; induction CEPE & BNF
RECORDED METRIC: viability at 48 h, 25 µM

So what's the measured viability at 48 h, 25 µM for this one? C1=Cc2cc3cccc4ccc5ccc1c2c5c43 [CEPE, cyclopenteno(c,d)pyrene]
34%

###

PROTOCOL DESCRIPTION: in vitro
TEST SETTINGS: human, ahh-1 cells, RELATIVE SURVIVAL, 100 μM × 48 hours; induction none
RECORDED METRIC: viability at 48 h, 100 µM (%)
Use % as the unit, but write only the number.

These solved cases illustrate the format of a correct answer.
So what's the measured viability at 48 h, 100 µM for this one? `CC(=O)Nc1ccc2c(c1)Cc1ccccc1-2`
33

So what's the measured viability at 48 h, 100 µM for this one? `Cc1cccc2c1ccc1ccccc12`
31

# ---- query compound ----
So what's the measured viability at 48 h, 100 µM for this one? `C/C=C(/C)C(=O)O[C@H]1CCN2CC=C(COC(=O)[C@@](O)([C@H](C)OC)C(C)(C)O)[C@H]12`
130

###

PROTOCOL DESCRIPTION: in vitro
TEST SETTINGS: human, ahh-1 cells, RELATIVE SURVIVAL, 50 μM × 48 hours; induction BNF
RECORDED METRIC: viability at 48 h, 50 µM (%)
Use % as the unit, but write only the number.

So what's the measured viability at 48 h, 50 µM for this one? `Cc1cccc2c1ccc1ccccc12`
35

###

PROTOCOL DESCRIPTION: in vitro
TEST SETTINGS: human, ahh-1 cells, RELATIVE SURVIVAL, 5 mM × 48 hours; induction none
RECORDED METRIC: viability at 48 h, 5000 µM (%)
Use % as the unit, but write only the number.

So what's the measured viability at 48 h, 5000 µM for this one? `CN(C)N=O`
98

###

PROTOCOL DESCRIPTION: in vitro
TEST SETTINGS: human, ahh-1 cells, RELATIVE SURVIVAL, 100 μM × 48 hours; induction BNF
RECORDED METRIC: viability at 48 h, 100 µM (%)
Use % as the unit, but write only the number.

So what's the measured viability at 48 h, 100 µM for this one? `Cc1cccc2c1ccc1ccccc12`
29

# ---- query compound ----
So what's the measured viability at 48 h, 100 µM for this one? `C/C=C(/C)C(=O)O[C@H]1CCN2CC=C(COC(=O)[C@@](O)([C@H](C)OC)C(C)(C)O)[C@H]12`
91

###

PROTOCOL DESCRIPTION: in vitro
TEST SETTINGS: human, ahh-1 cells, RELATIVE SURVIVAL, 50 μM × 48 hours; induction CEPE & BNF
RECORDED METRIC: viability at 48 h, 50 µM (%)
Use % as the unit, but write only the number.

So what's the measured viability at 48 h, 50 µM for this one? `C1=Cc2cc3cccc4ccc5ccc1c2c5c43`
27

###

PROTOCOL DESCRIPTION: in vitro
Assay type: cell-based, human
TEST SETTINGS: human, g6-a5 cells, 0.2 μg/ml, 24 hour treatment; G6-A5 clone; read-out: Relative Survival
RECORDED METRIC: viability at 24 h (%)
Use % as the unit, but write only the number.

So what's the measured viability at 24 h for this one? `c1ccc2c(c1)cc1ccc3cccc4ccc2c1c34`
41
